TGI overview
System: PC-3 prostate
METHOD_NOTES: NCI tumour cell line growth inhibition, 48 h

Guide cases for TGI, answers given:
query: Missing value: TGI, PC-3 prostate, entry O=c1ccn(CC2(CO)CCCC2)c(=O)[nH]1 . Fill in?
result: > 100 µM

query: Give the reported TGI for O=C(O)/C=C/C(=O)N1Cc2cc3ccccc3nc2C1 (system: PC-3 prostate).
result: > 100 µM

query: Form field: TGI recorded for CC(=O)C1C(=O)C(=O)N(c2ccccc2)C1=O (stereo unspecified) with PC-3 prostate (enter value)
result: > 100 µM

query: What measured TGI is associated with CCOC(=O)CCC(NC(=O)Cc1ccc(Nc2nc3ccccc3nc2-c2cccs2)cc1)C(=O)OCC (stereo unspecified) on PC-3 prostate?
result: > 100 µM

query: Please tell me: TGI of COc1c(O)c(OC)c2oc(-c3ccc(O)c(O)c3)c(OC)c(=O)c2c1O , system PC-3 prostate?
result: > 100 µM

Others:
query: Lookup: TGI / PC-3 prostate / C(/C=C/c1ccccc1)=Nc1ccc2c(c1)Cc1ccccc1-2
result: > 100 µM

query: Query TGI on PC-3 prostate for NC(CSCc1ccc(I)cc1)C(=O)O (stereo unspecified)
result: > 100 µM

query: Form entry - test system: PC-3 prostate; read-out: TGI; compound: N#Cc1c(NC(=O)NCc2ccccc2)sc2c1CCCC2
result: > 100 µM

query: Request body: readout TGI, system PC-3 prostate, query c1ccc2c(c1)NCCC(=NC1CCCCC1)N2 . Return the value.
result: > 100 µM

query: // map CC[C@H](NC(=O)[C@H]1CCCCN1C)C(=O)N(C)[C@H](C[C@@H](OC(C)=O)c1nc(C(=O)N[C@@H](Cc2ccccc2)C[C@H](C)C(=O)O)cs1)C(C)C to recorded TGI (system: PC-3 prostate)
result: > 14.3 µM

query: # get_value(readout= TGI, system= PC-3 prostate) for CC(C)C1OC(N)=C(C#N)C1(C#N)C#N (stereo unspecified)
result: > 100 µM

query: Can you look up TGI on PC-3 prostate for CCOc1ccc(N/C(=C(/C(Cl)=C(/Cl)Nc2ccccc2)[N+](=O)[O-])n2nnc3ccccc32)cc1 ?
result: 58.4 µM

query: What value of TGI on PC-3 prostate does C=C(C)C1CC/C(C)=C/CCC2(C)OC2CC/C(CO)=C\C1O (stereo unspecified) have?
result: > 100 µM
